test: Drug uptake in CB.17 SCID mouse tumor xenografted with OCI-LY10 cells at 10 mg/kg, po once daily for 24 days; assay type: ADME, organism-based, Neoplasm; settings: time 24 day, read-out: Drug uptake
valueType: concentration at 576 h

>  <givenSmiles>
C[C@H](Nc1nc(N)nc(N)c1C#N)c1c(-c2ccccc2)c(=O)n2cc(F)ccc2c1-c1ccc(F)cc1

>  <valueType>
concentration at 576 h

>  <val>
960 nM

$$$$

Numbers sourced from ChEMBL document CHEMBL4715876.
